- Tested on: NCI-H23 lung
- Experiment: NCI-60 one-dose screen, 48 h
- Condition Set: 10 µM unless noted
Compounds without any hit were thinned out: in the full panel of roughly 83,000, 20% have a hit. Active and inactive are the calls of the source. The calls were made as follows: active = growth percent below 10; inactive = the rest.
Please state which outcome applies, choosing from Y = active, N = inactive

Previously resolved entries follow.
Compound	Measured Target	Label
CN(C)c1ccc(/C=C/c2ccnc3ccccc23)cc1	NCI-H23 lung	N
O=[N+]([O-])/C(=C/c1ccccc1)c1ccccc1	NCI-H23 lung	N
CCCCN(CCCC)CCCCCCCCCCO	NCI-H23 lung	N
Cc1ccc2c(c1)sc(-c1ccc(N(C)C)cc1)[n+]2C	NCI-H23 lung	N
COc1ccc2nc3cc(Cl)ccc3c(NCCCCCN3CCCCC3)c2c1	NCI-H23 lung	Y
OC(c1cc2ccc(C(F)(F)F)cc2c2cc(C(F)(F)F)ccc12)C1CCCCN1 (stereo not given)	NCI-H23 lung	Y
Cc1oc2c(C)c3oc(=O)cc(C)c3cc2c1CCl	NCI-H23 lung	N
CN(C)c1ccc(/C=C/c2nccc3ccccc23)cc1	NCI-H23 lung	N
O=C1C=C(Cl)C(=O)c2ccccc21	NCI-H23 lung	N
Nc1ccc(C(=O)/C=C/c2ccccc2)cc1	NCI-H23 lung	N

Test call for this compound, please: COc1cc(OC)c(/C=C/c2c3ccccc3cc[n+]2C)c(OC)c1 N

Returns: the outcome recorded for CN(Cc1ccccc1)c1ccc(SC#N)cc1 in this assay. N

What did this assay record as the result for CN(C)CC(C)(CN(C)C)C(=O)/C=C/c1c(Cl)cccc1Cl ? N

Give the logged outcome of this assay for the following compound: O=C(O)c1ccc2c(c1)C(=O)c1ccccc1C2=O N

Hi, sorry to bother you, what did the test record for CN(C)c1ccc(C(=C2C=CC(=[N+](C)C)C=C2)c2ccc(N(C)C)cc2)cc1 ? Y

Could you check what this test reported for CC(=O)N1CC(=O)NC1=S ? N

Returns: the outcome recorded for OC(CSc1ccccc1)CN1CCN(c2ccc(Cl)cc2)CC1 (stereo not given) in this assay. N

What classification did CCN1/C(=C/C(C)=C/c2sc3ccc4ccccc4c3[n+]2CC)Sc2ccc3ccccc3c21 end up with in this test? Y

Call for entry Cc1ccc(/C=C2\CNC/C(=C\c3ccc(C)cc3)C2=O)cc1 : Y

// outcome(item) with item = OC(c1cc(C23CC4CC(CC(C4)C2)C3)nc2c(Cl)cc(Cl)cc12)C1CCCCN1 (stereo not given) Y

How did this test come out for Oc1c(Cl)cc(Cl)cc1C(c1cc(Cl)cc(Cl)c1O)C(Cl)(Cl)Cl ? Y
